system: NCI-H226; test: NCI tumour cell line growth inhibition, 48 h
Calls of active or inactive are those of the source. Cut-off read from the data, not from the text of the source: active = GI50 up to about 1.1 µM and inactive = higher. Square brackets hold non-standard residues; d marks the D form. Peptide text beside a SMILES is read from it. * marks the point of attachment. ξ: configuration not given here. NMeN = CN[C@@H](CC(N)=O)C(=O)O; NMeV = CN[C@H](C(=O)O)C(C)C; ξNMeV = CNC(C(=O)O)C(C)C; Boc = CC(C)(C)OC(=O)*; ξNMeA = CNC(C)C(=O)O
attribute measured: GI50

- O=C1OC2(C(F)(F)F)Oc3ccccc3CN2C12CCCCC2 (stereo not given): 27.4 µM (inactive)
- COC(=O)C(C)N(C)C(=O)[C@H](CC(N)=O)N(C)C(=O)[C@@H]1CCCN1C(=O)[C@H](C(C)C)N(C)C(=O)C(C(C)C)N(C)C(=O)[C@@H](NC(=O)OC(C)(C)C)C(C)C (stereo not given in full) (Boc-V[ξNMeV][NMeV]P[NMeN][ξNMeA]-OMe): > 50 µM (inactive)
- c1ccc2c(c1)ncn2CCn1ccnc1: > 100 µM (inactive)
- COc1ccc(N2C(=O)C(C#N)=C(SC)C(C#N)C2=O)cc1 (stereo not given): > 100 µM (inactive)
- COc1ccc(C2=N/C(=C\c3ccccc3)C(=O)O2)cc1: 28.5 µM (inactive)

----------
# Lookup of reported GI50 keyed by entry
test system: SN12C; assay: NCI tumour cell line growth inhibition, 48 h
Activity calls are given as the source filed them. Rule as the data show it: active = GI50 up to about 1.1 µM and inactive = higher.
attribute measured: GI50

* CCCCCCCCCCCCCCCC(=O)OCC1OC(OC)C2NP(=O)(N(CCCl)CCCl)OC1C2O (stereo not drawn) | 1.05 µM (active)
* CCOC(=O)c1cc(C(=O)c2ccccc2)n2nc(-c3ccc(Cl)cc3)ccc12 | 25.2 µM (inactive)
* CCSc1c2cc(OC)ccc2nc2ccc(OC)cc12 | 14.3 µM (inactive)

----------
Recorded GI50 by entry
test system: SN12C; experiment: NCI tumour cell line growth inhibition, 48 h
Activity calls are given as the source filed them. Rule as the data show it: active = GI50 up to about 1.1 µM and inactive = higher.
attribute measured: GI50

• CC1(C)[C@@H]2CC[C@]1(C)[C@H](OC(=O)CSC#N)C2 = > 100 µM (inactive)
• CN(C)C(=O)OC1=CC2CCC(C1)N2C (configuration not stated) = > 100 µM (inactive)
• COc1ccc2c([nH]c3c(O)c(-c4c(C)cc5c([nH]c6c(CC=C(C)C)c(OC)ccc65)c4O)c(C)cc32)c1CC=C(C)C = > 100 µM (inactive)
• CC(C)(C)OC(=O)NCC(=O)N(CCc1ccc(Cl)c(Cl)c1)CCN1CCCC1 = 17.3 µM (inactive)
• CCCCCCCC/C=C\CCCCCCCC(=O)O = 51.6 µM (inactive)
• COc1cc(/C=N/N=C(\N)NO)cc(OC)c1OC = 33.8 µM (inactive)
• Cc1cc2nc3c(N)nn(CCN(C)C)c3nc2cc1C = 36.7 µM (inactive)

----------
tested on: MCF7; assay: NCI tumour cell line growth inhibition, 48 h
Activity calls are given as the source filed them. Cut-off read from the data, not from the text of the source: active = GI50 up to about 1.1 µM and inactive = higher. Bridge positions count the residues as written; N and C are the ends. Square brackets hold non-standard residues; d marks the D form. Peptide text beside a SMILES is read from it. * marks the point of attachment. Cbz = O=C(OCc1ccccc1)*; Dab = NCC[CH](N)C(=O)O; Bn = c1ccc(C*)cc1
attribute measured: GI50

• CN(C)Cc1cc(/N=N/c2ccccc2)ccc1O = 89.1 µM (inactive)
• CCCCCCCCSC1=C(Cl)C(=O)C(OC)=C(OC)C1=O = 3.94 µM (inactive)
• COc1ccccc1N1CCN(CCCN2C(C(=O)c3ccccc3)=C(O)c3c(C)cc(C)nc3S2(=O)=O)CC1 = 96.4 µM (inactive)
• C=C(C)C(=O)OC1C(C(C)CCCO)=C(CO)CC2OC(=O)C(=C)C21 (centres undefined) = 11 µM (inactive)
• COc1ccc(OC)c2sc(N3C(=O)/C(=C/c4cccc([N+](=O)[O-])c4)N=C3c3ccccc3)nc12 = 21.2 µM (inactive)
• COc1ccccc1C(=O)Nc1ccc(Cl)c(C(=O)OC(C)C)c1 = 42 µM (inactive)
• Cc1occc1/C(S)=N\c1ccc(Cl)c(COC(C)(C)C)c1 = 17.1 µM (inactive)
• COC(=O)C[C@H](COCc1ccccc1)NC(=O)C[C@H](COCc1ccccc1)NC(=O)OC(C)(C)C = 19.8 µM (inactive)
• CC(C)C(=O)OCC1OC(n2c(Br)nc3c(=O)[nH]c(N)nc32)C(OC(=O)C(C)C)C1OC(=O)C(C)C (centres undefined) = 37.6 µM (inactive)
• C=C1C(=O)O[C@H]2C(=O)[C@H](C)CCC[C@@](C)(O)/C=C\C[C@@]3(C)O[C@@H]3C[C@@H]12 = 18.7 µM (inactive)
• CCOP(=O)(OCC)/C(C#N)=C/c1ccccn1 = > 100 µM (inactive)
• NC1CNC(=O)c2c(Cl)sc(Cl)c21 (centres undefined) = > 100 µM (inactive)
• CC(C)C1OCC(CO)CO1 (centres undefined) = > 100 µM (inactive)
• CC(C)CC1NC(=O)C(Cc2ccccc2)NC(=O)C(Cc2ccccc2)NC(=O)C(NC(=O)C(Cc2ccc(OCc3ccccc3)cc2)NC(=O)OCc2ccccc2)CCNC1=O (centres undefined) (Cbz-Y(Bn)[Dab]FFL; lactam 2-C; configuration not given here) = 38.8 µM (inactive)
• CC1(C(=O)O)CCC2(C)CCC3(C)C(=CC(=O)C4C5(C)CCC(O)C(C)(C)C5CCC43C)C2C1 (centres undefined) = 50.2 µM (inactive)
• Cc1cc(S(=O)(=O)NC2=Nc3ccc(Cl)cc3C(c3ccccc3)N2)c(S)cc1Cl (centres undefined) = > 100 µM (inactive)
• C=C(CC[C@@H](C(=O)O)[C@H]1[C@H](O)C[C@@]2(C)C3=CC[C@@H](C(=C)C)[C@](C)(CCC(=O)O)C3=CC[C@]12C)C(C)C [PORICOIC ACID A] = 17.1 µM (inactive)
• C=C1CC(C)(c2ccc(Nc3nc4ccccc4c4occc34)cc2)OC1=O (centres undefined) = 3.32 µM (inactive)
• Cc1c(-c2nc3ccccc3[nH]2)c(=O)n(-c2ccccc2)n1C = > 100 µM (inactive)
• COC1=CC(=O)C(C2(OC(C)C)OC(=O)C(Cl)=C2Cl)=CC1=O (centres undefined) = > 100 µM (inactive)
• COc1ccc(C2=N/C(=C\c3ccccc3)C(=O)O2)cc1 = > 100 µM (inactive)
• COc1ccc(N2C(=O)C(C#N)=C(SC)C(C#N)C2=O)cc1 (centres undefined) = > 100 µM (inactive)
• NCCN1C(=O)c2ccccc2C1c1ccc(Cl)cc1 (centres undefined) = > 100 µM (inactive)
• Cn1c(=O)cc(NNc2ccc(Cl)c(Cl)c2)[nH]c1=O = 6.41 µM (inactive)

----------
test system: SF-539; test: NCI tumour cell line growth inhibition, 48 h
Active and inactive are the calls of the source. Cut-off read from the data, not from the text of the source: active = GI50 up to about 1.1 µM and inactive = higher.
Measured GI50 values are reported for all entries that follow.
attribute measured: GI50

* Cc1occc1/C(S)=N\c1ccc(Cl)c(COC(C)(C)C)c1 | 16.8 µM (inactive)
* Cn1cc(-c2ccc3c4ccccc4n(C)c3c2)c2ccccc21 | > 100 µM (inactive)
* Cc1noc2nnn(-c3ccc(Cl)cc3)c(=O)c12 | 0.223 µM (active)
* COC(=O)N(C(=O)OC)C(C(=O)O)C(C)C (stereo unspecified) | > 100 µM (inactive)
* COC(=O)[C@@H](NC1(c2ccccc2)c2ccccc2-c2ccccc21)[C@H](OC(=O)[C@H]1CCCN1S(=O)(=O)c1ccccc1)C(=O)OC | > 100 µM (inactive)
* CCCCCCCC/C=C\CCCCCCCC(=O)O | 103 µM (inactive)
* O=C1c2cc3c(cc2[C@@H]2C(O)[C@H]4O[C@H]4C4CCN1C42)OCO3 (stereo partly specified) | > 37.5 µM (inactive)
* CC[N+](CC)(CC)/C(=N\S(=O)(=O)c1ccc(Cl)cc1)[N-]S(=O)(=O)c1cc(C)c(Cl)cc1S | 57.3 µM (inactive)
* Cn1c(=O)cc(NNc2ccc(Cl)c(Cl)c2)[nH]c1=O | 15.1 µM (inactive)
* NC(=O)c1csc(CCCCCCc2nc(C(N)=O)cs2)n1 | > 100 µM (inactive)
* O=C1C=C(Nc2ccccc2C(=O)CC(=O)C(=O)Nc2ccc(Cl)c(Cl)c2)c2ccccc2C1=O | 51.2 µM (inactive)
* COc1ccc(C2=N/C(=C\c3ccccc3)C(=O)O2)cc1 | 44.3 µM (inactive)
* C=C(CC[C@@H](C(=O)O)[C@H]1[C@H](O)C[C@@]2(C)C3=CC[C@@H](C(=C)C)[C@](C)(CCC(=O)O)C3=CC[C@]12C)C(C)C | 20 µM (inactive)
* O=c1[nH]nc(Cc2ccccc2)[nH]1 | > 100 µM (inactive)
* C=C1CC(C)(c2ccc(Nc3nc4ccccc4c4occc34)cc2)OC1=O (stereo unspecified) | 2 µM (inactive)
* COc1ccc(/C=N/C23CC4CC(CC(C4)C2)C3)cc1 | > 100 µM (inactive)
